Tested on: SNB-19
assay-overview: NCI tumour cell line growth inhibition, 48 h
The source made the active and inactive calls. No stated cut-off is given here; in the data, active = GI50 up to about 1.1 µM and inactive = higher.
Reported GI50 values for a set of molecules
readout: GI50

item-smiles	target-desc	result
O=C(c1cscc1CCc1ccccc1)c1cscc1CCc1ccccc1	SNB-19	> 100 µM (inactive)
CC(C)NC(=O)CN1CCN(C2=CC(=O)c3c(O)ccc(O)c3C2=O)CC1	SNB-19	18.7 µM (inactive)
Cc1ccccc1/C=C/c1csnn1	SNB-19	> 100 µM (inactive)
CCSc1nnc(-c2ccccc2)nc1Cc1ccc(OC)cc1	SNB-19	> 100 µM (inactive)
Cc1ccc(C)c(/C(=N\N=C(N)N)C2CC2)c1	SNB-19	48.9 µM (inactive)
Cc1cc(=O)oc2c(C)c(OCCCOc3ccc4c(C)cc(=O)oc4c3C)ccc12	SNB-19	> 100 µM (inactive)

###

Test system: SW-620
assay-overview: NCI tumour cell line growth inhibition, 48 h
Active and inactive are the calls of the source. No stated cut-off is given here; in the data, active = GI50 up to about 1.1 µM and inactive = higher.
Reported GI50 values for a set of molecules

molecule	GI50
Cc1c2c(cc3c(=O)ccn(CCN(C)C)c13)c(=O)ccn2CCN(C)C	3.81 µM (inactive)
COP(=O)(OC)C12CCOCCN1c1ccccc1C2=O (stereo not given)	> 100 µM (inactive)
O=C(/C=C/c1ccc(Cl)cc1)Oc1ccc(C=C2CCC/C(=C\c3ccc(OC(=O)/C=C/c4ccc(Cl)cc4)cc3)C2=O)cc1	> 100 µM (inactive)
C[N+]12CCCCC1C(CN1C(=O)c3ccccc3C1=O)CCC2 (stereo not given)	> 100 µM (inactive)
C[C@@H]1S[C@H](c2c(Cl)cccc2Cl)N2Cc3ccccc3N=C12	> 100 µM (inactive)

###

Reported GI50 values for a set of compounds
Test system: UACC-62
assay-overview: NCI tumour cell line growth inhibition, 48 h
Activity calls are given as the source filed them. Cut-off read from the data, not from the text of the source: active = GI50 up to about 1.1 µM and inactive = higher.
readout: GI50

compound	result
CC(C)=CCc1c2c(c(O)c3c(=O)c4c(oc13)-c1ccc(O)cc1OC4C=C(C)C)C=CC(C)(C)O2 (stereo unspecified)	13.7 µM (inactive)
CC(=O)Nc1cc(Cl)cc(Cl)c1O	> 100 µM (inactive)
Cc1ccc(S(=O)(=O)N2C[C@@H]3CC[C@]4(CO[Si](C)(C)C(C)(C)C)N[C@@H](c5ccccc5)[C@H]2[C@H]34)cc1	56.4 µM (inactive)
NC1CC(Cl)c2c(Cl)sc(Cl)c21 (stereo unspecified)	> 100 µM (inactive)
N#CCC12CC=CCC1=C(O)C(=O)c1ccc(O)cc12 (stereo unspecified)	> 100 µM (inactive)
CN(C)C(=S)/N=c1\ss/c(=N\C(=S)N(C)C)n1-c1ccc(Cl)cc1	> 100 µM (inactive)
COP(=O)(OC)C12CCOCCN1c1ccccc1C2=O (stereo unspecified)	> 100 µM (inactive)
O=C(O)CC1(CC(=O)O)Nc2ccccc2SC1=O	> 100 µM (inactive)
CC(/C=C/NNC1=NN=C(c2ccccc2)C(c2ccccc2)N1)Sc1ccccc1N (stereo unspecified)	3.39 µM (inactive)
c1ccc2c(c1)N=c1cc3c(cc1N2)=NC12CCCCC1CC1=C(CCCC1)N32 (stereo unspecified)	3.32 µM (inactive)
O=S(=O)(O)c1cc(S(=O)(=O)O)c2c(/N=N/c3ccc(/N=N/c4ccccc4)cc3)c(O)ccc2c1	> 100 µM (inactive)
COC(=O)c1c2c(cc3c1CC1(C3)Cc3cc4c(c(C(=O)OC)c3C1)CCC4)CCC2	55.8 µM (inactive)
CC1=NOC(=O)/C1=C/c1ccc([N+](=O)[O-])cc1	> 100 µM (inactive)
O=c1cc(-c2ccc(Cl)cc2)oc2cc(OCCCOc3ccc4c(=O)cc(-c5ccc(Cl)cc5)oc4c3)ccc12	> 100 µM (inactive)
CO/C(=C/C(=O)C(Cl)(Cl)Cl)CC/C(=C\C(=O)C(Cl)(Cl)Cl)OC	22 µM (inactive)
COc1ccc2nc3cc(Cl)ccc3c(Nc3ccc(O)c(CN4CCN(C)CC4)c3)c2c1	1.72 µM (inactive)
O=c1[nH]c(S)nc2c1sc(=S)n2-c1ccccc1	> 100 µM (inactive)
C[N+]12CCCCC1C(CN1C(=O)c3ccccc3C1=O)CCC2 (stereo unspecified)	> 100 µM (inactive)
C[C@]12CC(c3ccccc3O1)C(C(=O)NC13CC4CC(CC(C4)C1)C3)C(=O)N2 (stereo partly specified)	46.8 µM (inactive)
COc1ccc(-n2c3c(c4cc(O)ccc42)C(=O)c2ccccc2C3=O)cc1	3.5 µM (inactive)
O=S1OC2(c3ccccc3-c3ccccc32)c2ccccc21 (stereo unspecified)	> 100 µM (inactive)

###

Reported GI50 values for a set of compounds
Test system: SNB-78
assay-overview: NCI tumour cell line growth inhibition, 48 h
Activity calls are given as the source filed them. Cut-off read from the data, not from the text of the source: active = GI50 up to about 1.1 µM and inactive = higher.
readout: GI50

compound	target-desc	result
Cc1c2c(cc3c(=O)ccn(CCN(C)C)c13)c(=O)ccn2CCN(C)C	SNB-78	47.1 µM (inactive)
O=C1CC2=CCCC2O1 (stereo not given)	SNB-78	> 100 µM (inactive)
BrC12C3C4C5C(C(C43)C13OCCO3)C52 (stereo not given)	SNB-78	> 100 µM (inactive)
Cc1ccccc1/C=C/c1csnn1	SNB-78	> 100 µM (inactive)
O=c1cc(-c2ccc(Cl)cc2)oc2cc(OCCCOc3ccc4c(=O)cc(-c5ccc(Cl)cc5)oc4c3)ccc12	SNB-78	> 100 µM (inactive)

###

Tested on: SK-MEL-28
assay-overview: NCI tumour cell line growth inhibition, 48 h
Active and inactive are the calls of the source. Rule as the data show it: active = GI50 up to about 1.1 µM and inactive = higher.
Outcome codes: TRUE (active), FALSE (inactive)

molecule	label-value
COc1ccc2nc3cc(Cl)ccc3c(Nc3ccc(O)c(CN4CCN(C)CC4)c3)c2c1	FALSE
CC1=C(O)C(=O)c2cn(C)cc2C1=O	FALSE
Nc1ncn([C@H]2C[C@H](O)[C@@H](CO)O2)c(=O)n1	FALSE
O=C1CC(c2ccccc2)Oc2ccccc21 (stereo unspecified)	FALSE
CCc1nc(N)nc(N)c1-c1ccc(Cl)c(/N=N/N(C)C)c1	FALSE
CCOC(=O)C(=O)Nc1c(CC)cccc1C(C)C	FALSE
O=C1C(Cl)=C(Cl)C(=O)N1C1C2CC3CC(C2)CC1C3 (stereo unspecified)	FALSE
COc1c(F)c(F)c(C(=O)/C=C2\Nc3ccccc3NC2=O)c(F)c1F	FALSE
Cc1ccc2nc(NC(=O)C(=O)C(C#N)c3nc4ccccc4s3)sc2c1 (stereo unspecified)	FALSE
CC[C@@]1(O)C(=O)OCc2c1cc1n(c2=O)Cc2c-1nc1ccccc1c2/C=N\NC(=O)C(N)CC(C)C (stereo partly specified)	TRUE
N#CCC(=O)N/N=C(\C(=O)Nc1ccc(Cl)c(Cl)c1)C1CN(c2ccccc2)N=C1N (stereo unspecified)	FALSE

###

Tested on: OVCAR-5
assay-overview: NCI tumour cell line growth inhibition, 48 h
Calls of active or inactive are those of the source. No stated cut-off is given here; in the data, active = GI50 up to about 1.1 µM and inactive = higher.
Outcome codes: yes (1) = active, no (0) = inactive

molecule	label-value
C[C@]12CC(c3ccccc3O1)C(C(=O)NC13CC4CC(CC(C4)C1)C3)C(=O)N2 (stereo not given in full)	no (0)
O=C1NC2CCC(C2)C1c1ccccc1 (stereo not given)	no (0)
CC(CCOc1c2ccoc2cc2oc(=O)ccc12)C1=CC(=O)C(C)(C)O1 (stereo not given)	no (0)
CCOc1cc(NC(C)=O)ccc1C(=O)NNS(=O)(=O)c1ccc(Cl)cc1Cl	no (0)
COc1c2c(nc3ccccc13)-c1cc(C(CC(=O)OC(C)(C)C)C(=O)OC(C)C)c(CO)c(=O)n1C2 (stereo not given)	no (0)
COc1ccc(/C(Cl)=C(\C=O)c2ccc(Cl)cc2)cc1	no (0)
O=c1[nH]c(=O)n([C@H]2CCCO2)cc1F	no (0)
COc1cc(OCCN(C)C)c2[nH]c(C(=O)N3CC(CCl)c4ccc(N)cc43)cc2c1 (stereo not given)	yes (1)
Cc1c2c(cc3c(=O)ccn(CCN(C)C)c13)c(=O)ccn2CCN(C)C	no (0)
N#CCC12CC=CCC1=C(O)C(=O)c1ccc(O)cc12 (stereo not given)	no (0)

###

Below are compounds with their log10(GI50) as measured on HCT-15.
readout: log10(GI50) (log10 of the value in µM)

compound	number
Cc1c(Cl)cccc1/N=N/C(=O)NNc1cccc(Cl)c1C	1.16
CCCCc1nccc2c(C)c3[nH]c4ccccc4c3cc12	0.32
N#CC1C(=S)NC(c2ccccc2)=CC12CCCCC2 (stereo unspecified)	1.30
N#CC(C#N)SCc1ccccc1	1.49
NCCSc1cc(O)c2c(c1N)C(=O)c1ccccc1C2=O	1.47
COC(=O)C1=C(C[S+]([O-])c2ccccc2[N+](=O)[O-])ON(C)C1c1ccccc1 (stereo unspecified)	1.35
CCOc1cc2c(cc1O)C=C[C@@H]1[C@@H]2CC[C@]2(C)[C@@H](O)CC[C@@H]12	-0.25
CC1=NN(c2cccc(Cl)c2)C(=N/c2nc3ccccc3s2)/C1=C\c1cccs1	1.52
Cc1cc(C)c2c(=O)cc(-c3ccccc3)[nH]c2c1	-0.08
O=C1CC(c2ccccc2)Oc2ccccc21 (stereo unspecified)	1.42

Data provenance: ChEMBL document CHEMBL1201862
